The entries below are paired with their reported MIC.
system: Methicillin resistant S. aureus; assay: microbe, parasite or virus in culture; type: cell-based; settings: Staphylococcus aureus
measurement-label: MIC (µg/mL)

> print(dat)
                    structure.smiles.string  endpoint.unit  observed
1  c1cc2cc(-c3ccc(-c4cc5ccc(C6=NCCN6)cc5[nH]4)cc3)[nH]c2cc1C1=NCCN1          µg/mL     0.323
2  C(=C\c1cc2ccc(C3=NCCN3)cc2[nH]1)/c1cc2ccc(C3=NCCN3)cc2[nH]1          µg/mL      2.33
3  c1cc2cc(-c3ccc4cc(-c5ccc6oc(C7=NCCN7)cc6c5)[nH]c4c3)[nH]c2cc1C1=NCCN1          µg/mL      2.79
4  c1cc2cc(-c3ccc4cc(C5=NCCN5)[nH]c4c3)[nH]c2cc1C1=NCCN1          µg/mL       2.2
